In this section, each of the sequences is paired with its reported PBM binding z-score.
Test system: FXR:RXRa (NR concentration 270 nM, RXRa partner concentration 90 nM)
test: PBM binding z-score (relative to random genomic background probes); higher = stronger binding; sequences stand for … in GC…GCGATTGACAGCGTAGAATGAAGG
recordedEndpoint: PBM binding z-score

>  <sequence>
CCTAGCAGGCCAGGGGCACTCAAGCATTTCGCTT

>  <targetEntity>
FXR:RXRa (NR concentration 270 nM, RXRa partner concentration 90 nM)

>  <result>
-0.742

$$$$
>  <sequence>
CCAGACAGATGAGAAGGTAACTCAGCCTCGATTA

>  <targetEntity>
FXR:RXRa (NR concentration 270 nM, RXRa partner concentration 90 nM)

>  <result>
-0.147

$$$$
>  <sequence>
TCGAGTAGGTTACCGATGGGGCATTCAGCTTTCT

>  <targetEntity>
FXR:RXRa (NR concentration 270 nM, RXRa partner concentration 90 nM)

>  <result>
0.211

$$$$
>  <sequence>
CCTACTGGGCCAGGAAAGGTCATTGATTCAGTGA

>  <targetEntity>
FXR:RXRa (NR concentration 270 nM, RXRa partner concentration 90 nM)

>  <result>
3.42

$$$$
>  <sequence>
CTCGAAAGGTCGTGCTCAGGTGAGTATACCAAAC

>  <targetEntity>
FXR:RXRa (NR concentration 270 nM, RXRa partner concentration 90 nM)

>  <result>
5.37

$$$$
>  <sequence>
ATCGAAAGGTCGTGAGGTGAGTGTACAGAAAGGC

>  <targetEntity>
FXR:RXRa (NR concentration 270 nM, RXRa partner concentration 90 nM)

>  <result>
4.91

$$$$

---

In this section, each of the sequences is paired with its reported PBM binding z-score.
Tested on: RARb homodimer (NR concentration 270 nM)
test: PBM binding z-score (relative to random genomic background probes); higher = stronger binding; sequences stand for … in GC…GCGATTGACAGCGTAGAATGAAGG
recordedEndpoint: PBM binding z-score

>  <sequence>
CCTACTTGGTCAGGAGGTCACACACCGGATATGA

>  <result>
4.48

$$$$
>  <sequence>
AGAATGAGGTTATTAAGATCAGGGTATTGCGGTC

>  <result>
0.948

$$$$
>  <sequence>
ATATGTAGGTTAAGGCTCATTCAGGTTGGTTCGC

>  <result>
0.698

$$$$
>  <sequence>
TCTTGTAGATCAAGCAGGTTAAGAAAGCCTGAGT

>  <result>
0.31

$$$$
>  <sequence>
CGTCAAAGTTCAACTAAGGTAACGCAAAGCACGC

>  <result>
4.28

$$$$
>  <sequence>
TTACCAAGGTGAGCTGAGGTGGTTGATCCAACTC

>  <result>
-0.15

$$$$
>  <sequence>
TCTTGTAGCTCAAAGGTTAAGAAAGCCGAAGCCT

>  <result>
1.26

$$$$
>  <sequence>
TCTGCTAGGTAAACGATGGTCAGCTAATCTGCTA

>  <result>
-0.48

$$$$
>  <sequence>
GCTGGGAGGACAAGGTCAGAGCTTTGTCCGTAGA

>  <result>
3.21

$$$$
>  <sequence>
GATACAGGGTCAAGACCAGAGTACGCGTATTGAT

>  <result>
3.07

$$$$
>  <sequence>
ATCGAAAGGTCGTGAGTTGAGTATACAGAAAGGC

>  <result>
2.4

$$$$
>  <sequence>
ATCGAAAGTTCGTGAGGTGAGTATACAGAAAGGC

>  <result>
1.8

$$$$
>  <sequence>
TCATAGAGGTAAACAGGTGAAAGTCCGTAAGTTA

>  <result>
0.716

$$$$
>  <sequence>
TCATATAGCTAAACAGGTGAAAGTCCGTAAGTTA

>  <result>
0.282

$$$$
>  <sequence>
CAAACTAGGTCAGGAAAGGTCAAAGTCGAATGAC

>  <result>
5.66

$$$$
>  <sequence>
AACTCTAGGTAACCAAGTTCAGTGAATGCCGAAC

>  <result>
0.982

$$$$
>  <sequence>
AGTCAAAGTTCATCTAGGTAACTTAAGATATGCT

>  <result>
3.54

$$$$
>  <sequence>
ATAGGTAGGTTAGCTGGGGTCATTCAGACTAGGC

>  <result>
4.09

$$$$
>  <sequence>
ACTAGCAGACCAAGGGTCACTCAAGATTAGTCCG

>  <result>
3.58

$$$$
>  <sequence>
TTACCAAGATGAGCTGAGGTCGTTGATCCAACTC

>  <result>
0.571

$$$$
>  <sequence>
CGACCAAGGTCAAAGGTCAGTGAAGAGATGACGG

>  <result>
5.51

$$$$
>  <sequence>
TCTGCTAGGTCAGTTTGTCAGCTAACGAGCTGCC

>  <result>
1.74

$$$$
>  <sequence>
GCTGGCAGGCCATTTGGGTCACTCAATGACGGGC

>  <result>
1.88

$$$$
>  <sequence>
TCTCGGAGGACACGTAAGGTCAGAGCTCGACATC

>  <result>
4.02

$$$$
>  <sequence>
TTACCAAGGCGAGCTGAGGTCGTTGATCCAACTC

>  <result>
0.643

$$$$
>  <sequence>
GATACAGGGTCAGCTAGAGGACAGAGTATGGAAA

>  <result>
3.71

$$$$
